Please go through the items and note down their TGI.
system: MALME-3M melanoma; test: NCI tumour cell line growth inhibition, 48 h

1) O=c1nc(-c2ccccc2)scc1-c1ccccc1 :: > 100 µM
2) CC1=C2c3ccccc3N(S(=O)(=O)c3ccccc3)[C@H]2[C@H](C(=O)N2C3CC4CC[C@@]3(CS2(=O)=O)C4(C)C)CC1 (some centres undefined) :: > 100 µM
3) CCCCCCCCCCCCCC(=O)OC1C(CO)OC(=O)C1O (centres undefined) :: > 100 µM
4) CCOP(=O)(OCC)/C(C#N)=C/c1cc(O)ccc1O :: > 100 µM
5) CN/N=C(/CC(=O)c1sc(-n2nc(-c3ccccc3)cc2-c2ccccc2)nc1C)C(=O)Nc1ccc(Cl)c(Cl)c1 :: > 100 µM
6) Cc1ccc(S(=O)(=O)c2ccsc2NC(=O)c2ccccc2)cc1 :: > 100 µM
7) CCC[CH2][Ge]([CH2]CCC)([CH2]CCC)[O]C(=O)C(OC(C)=O)c1ccccc1 (centres undefined) :: 19.4 µM
8) COC(=O)C1CCC[C@H]2C(CO)=C(C)C(=O)[C@@H]12 (some centres undefined) :: > 100 µM
9) NC(=O)OCC(COc1ccc(Cl)cc1)OC(=O)c1cc([N+](=O)[O-])cc([N+](=O)[O-])c1 (centres undefined) :: > 100 µM
10) N#Cc1nc(NC(=O)c2ccccc2)sc1N :: > 10 µM

Below is a list of molecules. For each, state its recorded TGI.
1. O=C1C(Cl)=C(Nc2ccccn2)C(=O)c2ccccc21
2. C/C=C(\C)C(=O)OC1C2C(C)C(=O)OC2C(O)C(C)C2C=CC(=O)C21C (centres undefined)
3. O=C1C=C(NCCc2cc(Cl)c(O)c(Cl)c2)C(=O)c2[nH]cnc21
4. O=C1c2ccccc2CCC1(Br)Br
5. CC1=C2[C@@H](c3ccccc3)C3C=CC2(c2ccccc23)N(C(=O)Nc2cccc3ccccc23)C1=O (some centres undefined)
6. CCCCCCCSCC1OC(n2cnc3c(N)ncnc32)C(O)C1O (centres undefined)
7. COC(=O)C(C(=O)C(=O)Nc1ccc([N+](=O)[O-])cc1)c1nc2cc(C)c(C)cc2[nH]c1=O (centres undefined)
8. NC(N)=NCCCC(NCc1c2ccccc2[n+]([O-])c2ccccc12)C(=O)O (centres undefined)

1: 3.65 µM; 2: 27 µM; 3: 15.9 µM; 4: 2.75 µM; 5: > 100 µM; 6: > 100 µM; 7: > 100 µM; 8: > 100 µM
